Values compiled from paper PMC7865522.

Target: BRAF (Homo sapiens)
Construct: purchased DiscoverX (KINOMEscan service); host or cells: E. coli BL21-derived host (T7 phage) or HEK-293
Sequence (P15056 whole entry): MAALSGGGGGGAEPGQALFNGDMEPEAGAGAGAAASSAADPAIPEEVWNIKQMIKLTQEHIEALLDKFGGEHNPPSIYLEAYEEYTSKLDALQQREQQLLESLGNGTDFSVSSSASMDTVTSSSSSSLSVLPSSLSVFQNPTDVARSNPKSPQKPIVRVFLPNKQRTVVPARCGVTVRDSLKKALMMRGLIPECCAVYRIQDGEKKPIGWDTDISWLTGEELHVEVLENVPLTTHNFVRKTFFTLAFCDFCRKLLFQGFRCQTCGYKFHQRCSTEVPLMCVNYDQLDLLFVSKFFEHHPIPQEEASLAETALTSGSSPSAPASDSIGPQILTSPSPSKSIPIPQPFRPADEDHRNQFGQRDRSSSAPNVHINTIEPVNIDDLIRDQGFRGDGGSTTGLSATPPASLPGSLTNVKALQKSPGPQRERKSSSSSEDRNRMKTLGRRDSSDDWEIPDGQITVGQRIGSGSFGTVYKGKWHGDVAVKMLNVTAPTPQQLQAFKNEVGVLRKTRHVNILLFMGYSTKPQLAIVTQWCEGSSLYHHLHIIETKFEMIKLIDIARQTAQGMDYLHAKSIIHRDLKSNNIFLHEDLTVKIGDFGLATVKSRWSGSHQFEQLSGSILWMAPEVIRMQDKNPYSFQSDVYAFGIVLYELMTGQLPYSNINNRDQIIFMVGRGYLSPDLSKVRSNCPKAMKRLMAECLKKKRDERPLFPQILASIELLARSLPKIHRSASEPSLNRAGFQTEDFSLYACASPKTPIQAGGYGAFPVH
Test: Eurofins in vitro kinase inhibition assay
Assay type: biochemical
Settings: compound 20 µM; mean (SD); above 50% significant, 25-50% weak
OUTCOME_MEASURE: % inhibition of control activity, BRAF (Eurofins)

1. Cc1[nH]c2nc3c(c(=O)n(Cc4ccccc4)c(=O)n3C)n2c1C | -6.3 (1.6) % inhibition
2. CC(C)n1ccc(=O)nc1SC1CCN(c2ccccc2F)C1=O (stereo not shown) | -19.6 (11.8) % inhibition
3. CCOCCCNC(=O)c1nc2c3c4c(sc3ncn2n1)CC[C@@H](C)C4 | -18.5 (1.8) % inhibition
4. CC1(C)C2CC=C(COC(=O)c3cnn4cccnc34)C1C2 (stereo not shown) | -11.3 (4.2) % inhibition
5. COCCCNC(=O)c1nc2c3c4c(sc3ncn2n1)COC(C)(C)C4 | -8.3 (20.8) % inhibition
6. O=C(NCC1CC1)Nc1ccc(N2CCOC2=O)cc1 | -11.1 (4.9) % inhibition
7. Cc1ccc(-n2cnnn2)cc1NC(=O)NC1CC1 | -13.7 (10.5) % inhibition
8. C[C@H](COCC(F)(F)F)NC(=O)Cc1n[nH]c(=O)c2ccccc12 | -14.7 (7.4) % inhibition
9. Cc1cc(=O)n2nc(N(C)CC(=O)NCc3cccs3)sc2n1 | -12.4 (1.8) % inhibition
10. COCCCNC(=O)c1nc2c3c4c(sc3ncn2n1)CC[C@H](C)C4 | -27.8 (10.8) % inhibition
11. CCc1nnc(NC(=O)c2nn(-c3ccc(C)cc3)ccc2=O)s1 | -22.9 (4.9) % inhibition
12. CCc1nccc(-c2nccn2C(Cn2cccn2)c2ccccc2)n1 (stereo not shown) | -19.7 (2.4) % inhibition
13. COCCCNC(=O)c1nc2c3c4c(sc3ncn2n1)CCC[C@H]4C | -18.7 (11.9) % inhibition
14. Cc1ccc(-n2cnnn2)cc1NC(=O)NCC1CC1 | -20.8 (0.4) % inhibition
15. O=C1C[C@@H](c2noc(-c3ccc[nH]c3=O)n2)CN1Cc1ccccc1 | -17.7 (15.6) % inhibition
16. O=C(O)c1cncnc1NCc1nc(-c2cnccn2)n[nH]1 | -0.3 (1.6) % inhibition
17. CN(C)S(=O)(=O)c1cccc(C2=N/C(=C\c3cccc(F)c3)C(=O)O2)c1 | -22.8 (15.9) % inhibition
18. O=C(Cn1cnc2c(cnn2CCO)c1=O)NCc1ccccc1 | -12.4 (10.9) % inhibition
19. O=C(Oc1ccc2c3c(c(=O)oc2c1)CCC3)c1cccc(Cl)c1 | -33.6 (18.1) % inhibition
20. Cc1ccc(/C=C2\N=C(c3cccc(S(=O)(=O)N(C)C)c3)OC2=O)s1 | -44.9 (24.1) % inhibition
21. CC(=O)c1cc(CC(=O)N(C)C[C@H]2CCCCO2)cs1 | -8.2 (13.6) % inhibition
22. COc1ccc(-c2nn(C(C)=O)c3c2C(=O)CC(C)(C)C3)cc1 | -21.8 (9.5) % inhibition

* * *

Target: PI3K (Homo sapiens, UniProt P42336)
Sequence (P42336 whole entry): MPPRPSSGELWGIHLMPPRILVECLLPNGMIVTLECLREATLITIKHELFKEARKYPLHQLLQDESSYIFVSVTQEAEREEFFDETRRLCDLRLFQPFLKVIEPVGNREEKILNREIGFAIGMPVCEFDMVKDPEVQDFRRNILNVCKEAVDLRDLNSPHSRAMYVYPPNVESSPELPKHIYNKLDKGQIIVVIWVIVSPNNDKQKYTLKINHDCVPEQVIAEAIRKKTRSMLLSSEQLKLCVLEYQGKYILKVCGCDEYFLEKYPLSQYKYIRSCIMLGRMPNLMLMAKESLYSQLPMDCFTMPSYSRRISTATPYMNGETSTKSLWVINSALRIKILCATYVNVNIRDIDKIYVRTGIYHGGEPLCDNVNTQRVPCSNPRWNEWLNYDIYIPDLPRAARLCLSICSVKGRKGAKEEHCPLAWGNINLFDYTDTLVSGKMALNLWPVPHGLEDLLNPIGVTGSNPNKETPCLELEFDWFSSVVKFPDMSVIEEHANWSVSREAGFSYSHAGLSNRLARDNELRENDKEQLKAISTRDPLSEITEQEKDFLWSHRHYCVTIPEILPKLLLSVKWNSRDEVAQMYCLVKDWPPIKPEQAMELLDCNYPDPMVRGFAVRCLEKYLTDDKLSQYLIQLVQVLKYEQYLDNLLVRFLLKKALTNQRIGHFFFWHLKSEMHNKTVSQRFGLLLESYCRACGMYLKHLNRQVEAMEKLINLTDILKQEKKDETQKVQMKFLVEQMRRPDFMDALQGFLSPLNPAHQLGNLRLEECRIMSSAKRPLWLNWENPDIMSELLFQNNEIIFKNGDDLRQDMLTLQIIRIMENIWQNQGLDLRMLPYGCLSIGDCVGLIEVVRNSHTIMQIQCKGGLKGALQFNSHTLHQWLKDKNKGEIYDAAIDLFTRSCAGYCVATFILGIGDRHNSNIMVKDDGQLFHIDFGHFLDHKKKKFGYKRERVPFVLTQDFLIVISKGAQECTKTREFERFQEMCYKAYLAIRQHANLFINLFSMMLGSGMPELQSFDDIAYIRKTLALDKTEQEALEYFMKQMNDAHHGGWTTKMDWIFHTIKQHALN
Sequence (P27986 whole entry partner): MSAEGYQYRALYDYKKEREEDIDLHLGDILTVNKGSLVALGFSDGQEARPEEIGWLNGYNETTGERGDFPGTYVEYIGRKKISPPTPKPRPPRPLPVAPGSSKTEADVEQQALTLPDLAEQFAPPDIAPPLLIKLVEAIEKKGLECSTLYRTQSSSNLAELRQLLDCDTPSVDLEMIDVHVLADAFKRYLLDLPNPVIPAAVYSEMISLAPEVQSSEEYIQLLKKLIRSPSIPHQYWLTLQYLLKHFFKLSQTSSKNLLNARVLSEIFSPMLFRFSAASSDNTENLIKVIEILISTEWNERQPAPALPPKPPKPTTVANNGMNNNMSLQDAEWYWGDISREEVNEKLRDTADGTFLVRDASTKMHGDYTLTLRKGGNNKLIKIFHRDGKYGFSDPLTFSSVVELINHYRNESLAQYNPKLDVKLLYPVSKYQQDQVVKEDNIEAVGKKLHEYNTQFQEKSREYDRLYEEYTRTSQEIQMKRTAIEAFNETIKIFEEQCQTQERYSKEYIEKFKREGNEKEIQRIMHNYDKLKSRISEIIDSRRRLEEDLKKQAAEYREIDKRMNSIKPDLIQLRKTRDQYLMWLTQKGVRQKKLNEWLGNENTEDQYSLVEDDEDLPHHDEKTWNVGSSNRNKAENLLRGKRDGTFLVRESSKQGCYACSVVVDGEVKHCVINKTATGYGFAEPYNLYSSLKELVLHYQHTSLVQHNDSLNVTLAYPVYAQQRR
Test: Eurofins in vitro kinase inhibition assay (HTRF, PIP3 displacement)
Format: biochemical
Parameters: purchased Eurofins Cerep (contract assay)
Details: compound 20 µM; mean (SD); above 50% significant, 25-50% weak
Listed next: entries and their corresponding % inhibition of control activity, PI3K (Eurofins).
OUTCOME_MEASURE: % inhibition of control activity, PI3K (Eurofins)

1) COC(=O)Cc1ccc(Oc2ncnc3sc4c(c23)CC[C@@H](C)C4)cc1 (racemic) | -6.7 (2.3) % inhibition
2) O=C(NCC1CC1)Nc1ccc(N2CCOC2=O)cc1 | 1.7 (0.8) % inhibition
3) O=C(Cn1cnc2c(cnn2CCO)c1=O)NCc1ccccc1 | -1 (1.6) % inhibition
4) Cc1ccc(-n2cnnn2)cc1NC(=O)NCC1CC1 | 0.4 (1.7) % inhibition
5) Cc1[nH]c2nc3c(c(=O)n(Cc4ccccc4)c(=O)n3C)n2c1C | 1.5 (5.8) % inhibition
6) Cc1ccc(-n2cnnn2)cc1NC(=O)NC1CC1 | 1.8 (4.4) % inhibition
7) Cc1ccc(/C=C2\N=C(c3cccc(S(=O)(=O)N(C)C)c3)OC2=O)s1 | 22.1 (2.3) % inhibition
8) Cc1cc(=O)n2nc(N(C)CC(=O)NCc3cccs3)sc2n1 | -1.1 (2.1) % inhibition
9) CCOCCCNC(=O)c1nc2c3c4c(sc3ncn2n1)CC[C@@H](C)C4 | 3.6 (2.3) % inhibition
10) C[C@H](COCC(F)(F)F)NC(=O)Cc1n[nH]c(=O)c2ccccc12 | -2.8 (0.6) % inhibition
